TARGET ENTITY: α7-subtype of nicotinic receptors (Rattus norvegicus)
Sequence (Q05941 23-502): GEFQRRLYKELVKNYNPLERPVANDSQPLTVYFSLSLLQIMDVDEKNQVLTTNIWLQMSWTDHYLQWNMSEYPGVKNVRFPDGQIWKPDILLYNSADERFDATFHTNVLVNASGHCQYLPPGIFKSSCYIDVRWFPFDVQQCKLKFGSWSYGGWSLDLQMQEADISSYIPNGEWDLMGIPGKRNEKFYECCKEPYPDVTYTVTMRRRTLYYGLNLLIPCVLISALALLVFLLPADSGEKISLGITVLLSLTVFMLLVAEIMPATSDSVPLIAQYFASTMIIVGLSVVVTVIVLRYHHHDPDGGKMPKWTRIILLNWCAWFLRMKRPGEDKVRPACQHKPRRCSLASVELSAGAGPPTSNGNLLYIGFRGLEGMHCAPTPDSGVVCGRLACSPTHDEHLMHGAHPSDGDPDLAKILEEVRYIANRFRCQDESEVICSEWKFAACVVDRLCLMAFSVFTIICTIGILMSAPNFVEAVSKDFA
Items are presented alongside their recorded IC50.
Please respond with the number in nM and leave the unit unwritten.

>>> measured_value("O=C(c1ccco1)N1CCN2CCC1CC2")
540

Query: So what does the record say about IC50 for O=CNc1ccc(-c2ccc(C(=O)N3CCN4CCC3CC4)o2)cc1 ?
Reply: 17

Query: Then O=C(c1ccc(-c2cccc(C(F)(F)F)c2)o1)N1CCN2CCC1CC2 ?
Reply: 51

Query: Then Nc1cccc(-c2ccc(C(=O)N3CCN4CCC3CC4)o2)c1 ?
Reply: 80
